Cited source for all entries: paper PMC11195807

assayed.target: hCA I (Homo sapiens, UniProt P00915)
Construct: made in house
Sequence (P00915 whole entry): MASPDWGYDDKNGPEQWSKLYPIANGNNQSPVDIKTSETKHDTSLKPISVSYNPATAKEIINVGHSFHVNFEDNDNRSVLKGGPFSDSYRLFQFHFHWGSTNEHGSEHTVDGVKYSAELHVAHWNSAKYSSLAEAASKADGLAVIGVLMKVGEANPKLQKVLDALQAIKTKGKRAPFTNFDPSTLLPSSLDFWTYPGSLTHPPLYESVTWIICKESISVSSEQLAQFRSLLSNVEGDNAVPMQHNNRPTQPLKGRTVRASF
test.name: stopped-flow CO2 hydrase assay, hCA I
Assay type: biochemical
study.conditions: sulphonamides; inhibitor-enzyme incubation 15 min; mean ± SEM of three assays
pKi: −log10 of the molar value.
assay.readout: pKi

Example entries begin here.
COc1ccc2cc3[n+](cc2c1OCCCCCn1cc(-c2ccc(S(N)(=O)=O)cc2)nn1)CCc1cc2c(cc1-3)OCO2
6.24
COc1ccc2cc3[n+](cc2c1OCCCCn1cc(COc2ccc(S(N)(=O)=O)cc2)nn1)CCc1cc2c(cc1-3)OCO2
6.04
COc1ccc2cc3[n+](cc2c1OCCn1cc(COc2ccc(S(N)(=O)=O)cc2)nn1)CCc1cc2c(cc1-3)OCO2
6.03
COc1ccc2cc3[n+](cc2c1OCCCn1cc(-c2ccc(S(N)(=O)=O)cc2)nn1)CCc1cc2c(cc1-3)OCO2
6.06
COc1ccc2cc3[n+](cc2c1OCCCCn1cc(-c2ccc(S(N)(=O)=O)cc2)nn1)CCc1cc2c(cc1-3)OCO2
6.23
COc1ccc2cc3[n+](cc2c1OCc1cn(-c2ccc(S(N)(=O)=O)cc2)nn1)CCc1cc2c(cc1-3)OCO2
6.08

1. COc1ccc2cc3[n+](cc2c1OCc1cn(-c2cccc(S(N)(=O)=O)c2)nn1)CCc1cc2c(cc1-3)OCO2
2. COc1ccc2cc3[n+](cc2c1OCCCn1cc(COc2ccc(S(N)(=O)=O)cc2)nn1)CCc1cc2c(cc1-3)OCO2
3. COc1ccc2cc3[n+](cc2c1OCCCS(N)(=O)=O)CCc1cc2c(cc1-3)OCO2
-- ask # rank by pKi, ascending (min first) Returns: the labels listed in the requested order.
-- reply 1, 2, 3

I. COc1ccc2cc3[n+](cc2c1OCCn1cc(-c2ccc(S(N)(=O)=O)cc2)nn1)CCc1cc2c(cc1-3)OCO2
II. COc1ccc2cc3[n+](cc2c1OCCCCCn1cc(COc2ccc(S(N)(=O)=O)cc2)nn1)CCc1cc2c(cc1-3)OCO2
-- ask # min-compare on pKi between I and II Your answer should be the label attached to the chosen record.
-- reply I
